Sourced from PubChem BioAssay (NCI)

system: OVCAR-4 ovarian; assay: NCI-60 one-dose screen, 48 h (100 = growth as untreated, 0 = no growth, -100 = all killed); conditions: 10 µM unless noted
About 83,000 compounds went through this panel and 20% of them were active in at least one assay; those are over-represented in the sample as a whole.
# fulfilled = growth below 60% (exclusive); not fulfilled = growth at/above 60%

Confirm or reject: growth of CCN(CC)CCNC(=O)c1cn2ncnc(Oc3ccc(NC(=O)Nc4ccc(Cl)c(C(F)(F)F)c4)cc3)c2c1C lies strictly below 60%
fulfilled

Cc1cccc2c1S/C(=C/c1ccc([N+](=O)[O-])cc1)C2=O , same question.
not fulfilled

Likewise for CCc1ccc(Oc2c(-c3ccc(OCc4ccc(Cl)cc4)cc3O)n[nH]c2C(F)(F)F)cc1 ?
fulfilled

Could you do the same for c1ccc(-c2nc3sc(-c4ccccc4)cn3n2)cc1 , please?
not fulfilled

How about N#Cc1ccc(NC(=O)c2sc3nc4c(cc3c2N)C(=O)CCC4)cc1 ?
not fulfilled

Okay, and CCCSc1nc2ccc(C)cc2cc1/C=[N+](\[O-])c1ccccc1 ?
fulfilled

// query: CC(C)c1cc(C(C)C)c(S(=O)(=O)Oc2ccc(NC(=O)c3ccc(Cl)cc3)cc2)c(C(C)C)c1
fulfilled

Now try Cc1ccc(C(CC(=O)O)c2c(C)[nH][nH]c2=O)cc1 (stereo not given) .
not fulfilled

Record: COc1cc(C(=O)/C=C/c2ccc(OCCCCCC[P+](c3ccccc3)(c3ccccc3)c3ccccc3)cc2)cc(OC)c1OC
fulfilled

Same question, O=c1c2cc(F)ccc2sc2c(N3CCNCC3)nc3ccc(F)cc3c12 this time
fulfilled

// same read-out, input: CCCCNC(=O)Oc1ccc(/C(=C(\C)c2ccc(Cl)cc2)c2ccc(OCCN(CC)CC)cc2)cc1
not fulfilled

Same question for C=C1CC[C@H](C(C)C)[C@@H]2[C@H]1[C@H]1CC(=C)[C@@H](O)CC[C@@](C)(O)[C@@H]2O1 please.
not fulfilled

Same question for Cc1ccc(/C=C(\C#N)n2nc3cccc(F)c3n2)cc1 please.
not fulfilled

Same lookup for O=C1c2ccccc2NC(n2sc3ccccc3c2=O)N1c1ccccc1 (stereo not given) , please.
not fulfilled

How about Cc1ccc(/C=N\NC(=O)c2[nH]c3ccc(F)cc3c2-c2ccccc2)cc1 ?
fulfilled

Same thing, different compound: O=C(CCN1C(=O)/C(=C/c2ccc(O)cc2)SC1=S)Nc1ccc(Cl)cc1
not fulfilled

Cool, now C=CCc1cc(C)ccc1NC(C(=O)NCC(=O)OC)c1ccccc1 (stereo not given)
not fulfilled

Another compound to check: C=CCNc1ccc2c3c(cccc13)C(=O)N(N1C(=O)c3cccc4cccc(c34)C1=O)C2=O
not fulfilled

Repeat with NC(=O)Nc1ccc2ncnc(Nc3ccc(Cl)cc3)c2c1
not fulfilled

* * *

tested on: LOX IMVI melanoma; assay: NCI-60 one-dose screen, 48 h (100 = growth as untreated, 0 = no growth, -100 = all killed); conditions: 10 µM unless noted
Compounds without any hit were thinned out: in the full panel of roughly 83,000, 20% have a hit.
Exercise: for every item that follows, state its recorded growth.
Quick reminder: number only, in %, skip the unit.

What growth appears in the records for this molecule with LOX IMVI melanoma? COc1ccc(S(=O)(=O)n2c3ccccc3n3ncc(-c4nnc(C)o4)c23)cc1
36.8

Please answer likewise for COc1cc(C2CC(c3ccc(N(C)C)cc3)=NN2C(C)=O)cc(OC)c1OC (stereo not given)
37.6

What about this molecule? COc1cc(C(=O)c2cc(C)c3[nH]c4ccc(O)cc4c3c2C)cc(OC)c1OC
13

Same question, CCOC(=O)c1c(C)oc2ncnc(N3CCN(C(=O)COc4ccc(C(C)(C)C)cc4)CC3)c12 this time
75.5

What do you have for O=C(O)c1cn(C2CC2)c2cc(N3CCN(C(=O)Nc4nc(-c5ccc(Cl)cc5)cs4)CC3)c(F)cc2c1=O ?
-66.8
